# experimental details: Human HepG2 cell viability assay in 384 well format
# Assay type: toxicity, cell-based
# Parameters: dose 125 nL, time 70.5 hour; concentration not given beside the values
# stated conditions: HepG2 cells, read-out: Inhibition
readout name: cytotoxicity at 70.5 h (%)
Give bare numbers, in %.

molecule: CC(=O)N1CCc2c(nc(N(C)C)nc2NCCCn2ccnc2)C1
readout name: cytotoxicity at 70.5 h
assay value: -8.48
--
molecule: COCCN1CCCC(c2ncc(C(=O)N3CCOCC3)c(C)n2)C1 (stereo not given)
readout name: cytotoxicity at 70.5 h
assay value: 1.77
--
molecule: CCN1CCC2(CC1)CC(Nc1ncccn1)CO2 (stereo not given)
readout name: cytotoxicity at 70.5 h
assay value: -1.36

Hi there! I need cytotoxicity at 70.5 h for each item below, if you can.
1. COc1ccc(CNC(C)Cn2cccn2)cc1F (stereo not given)
2. CCn1ccnc1CN1CCN(c2ncnc3ccsc23)CC1C (stereo not given)
3. Cc1nc2c(c(C)c1CC(=O)NCc1ccccc1F)c(=O)[nH]n2C
4. O=C(COc1ccc(F)cc1F)N1CCOCC(O)(CN2CCCC2)C1 (stereo not given)
5. COCCN1CCCc2sc(C(=O)Nc3ccc(C)nc3)nc21

Response given:
-1.59
0.44
-7.35
-2.46
-0.226

###

# experimental details: Human HepG2 cell viability assay in 384 well format
# Format: toxicity, cell-based
# Parameters: dose 125 nL, time 70.5 hour; concentration not given beside the values
# stated conditions: HepG2 cells, read-out: Inhibition
readout name: cytotoxicity at 70.5 h (%)
Answers are plain numbers, in %.

Solved entries (count: 3):
molecule: COc1ccc(CNC(=O)Nc2cccnc2OC)cc1O
assay value: 22.7

molecule: CCCn1nc2c(cc1=O)CN(Cc1ncc(C(C)(C)C)o1)CC2
assay value: -4.85

molecule: CCN1CCN(C(=O)c2cc(-c3ccc(C)o3)n[nH]2)[C@H]2CS(=O)(=O)C[C@H]21
assay value: 42.7

Hi there! I need cytotoxicity at 70.5 h for each item below, if you can.
1. NCCn1cc(C(=O)N2CCCCCC2c2ccco2)nn1 (stereo unspecified)
2. CCCN1CCN(C(=O)c2ccc(Cn3cc(Br)cn3)cc2)CC1
3. CCCS(=O)(=O)NCCn1ccc(-c2cccs2)n1
4. O=C(Nc1cnn(CC(=O)N2CCCCO2)c1)c1ccsc1
5. CCS(=O)(=O)N1C[C@@H]2CN(Cc3cccs3)CCO[C@@H]2C1
6. CC(C)c1cc(C(=O)N2CCCN(Cc3ccccc3)CC2)n[nH]1

Response given:
[-8.2, -7.06, 25.9, -2.35, 6.04, -5.87]

Hi there! I need cytotoxicity at 70.5 h for each item below, if you can.
1. CNC(=O)c1ccc(NC(=O)NC(C)c2cc(C)oc2C)cc1 (stereo unspecified)
2. C/C=C(\C)CN1C[C@H](NC(=O)CN2CCCC2=O)[C@@H](c2ccc(C)o2)C1

Response given:
[-8.2, 9.35]

###

# experimental details: Human HepG2 cell viability assay in 384 well format
# Format: toxicity, cell-based
# Parameters: dose 125 nL, time 70.5 hour; concentration not given beside the values
# stated conditions: HepG2 cells, read-out: Inhibition
For each of the compounds below, state its cytotoxicity at 70.5 h.
Numbers only, in %.

compound: CCn1nccc1CNC(=O)C1CCCO1 (stereo not given)
unit of measurement: %
cytotoxicity at 70.5 h: 0.767
//
compound: CCc1c(C)nn2c(O)cc(C3CCN(C(=O)c4ccccn4)C3)nc12 (stereo not given)
unit of measurement: %
cytotoxicity at 70.5 h: -2.35
//
compound: COc1cc(N2CCC3(CCN(Cc4csc(C)n4)C3=O)C2)ncn1 (stereo not given)
unit of measurement: %
cytotoxicity at 70.5 h: -7.86
//
compound: Cc1cnc(C(=O)N2CC[C@@H]3CN(c4ncccn4)CCO[C@@H]3C2)cn1
unit of measurement: %
cytotoxicity at 70.5 h: -4.8

Hi there! I need cytotoxicity at 70.5 h for each item below, if you can.
1. CC(C)c1nnc2n1CCN(C(=O)c1ccc(N(C)C)nn1)C2
2. CC(=O)c1c(C)nn(CC(=O)N2Cc3cnc(CC(C)C)nc3C2)c1C
3. COc1ccccc1C1CC(=O)Nc2c1c(=O)[nH]n2C(C)C (stereo not given)
4. CCn1nc(C)cc1C(=O)N1C[C@@H]2C[C@@H](C)O[C@@H]2C1
5. CCOCC1CN(S(C)(=O)=O)Cc2nn(C)cc21 (stereo not given)
6. Cc1c(NC(=O)CN2CCN(C3CCCC3)C(=O)C2)cnn1C
7. COc1cccc(C(=O)N(C)C(C)c2c(C)n[nH]c2C)c1OC (stereo not given)
8. Cc1cc(C(=O)NCc2ccco2)nn1C

Response given:
2.93
-8.3
25.6
-7.68
-3.61
-2.64
-5.83
-11.3

Hi there! I need cytotoxicity at 70.5 h for each item below, if you can.
1. O=C(c1ccsc1)N1CCO[C@@H]2CN(Cc3ccccn3)CC[C@@H]2C1
2. COCC(C)(O)CNC(=O)c1cc(-c2ccc(F)cc2)nn1C (stereo not given)
3. Cc1csc(N2CCCN(C3Cc4ccccc4C3)CC2)n1
4. CC(NC(=O)N1CCCN(C)CC1)c1ccc2c(c1)OCCO2 (stereo not given)
5. COc1cccc(C(=O)N2CCc3c(nc(N)[nH]c3=O)C2)c1OC
6. CC(C)NC(=O)C1CN(C(=O)Nc2cccc(F)c2)CC12CCOCC2 (stereo not given)
7. O=C(NCCc1ccccc1F)NCC(O)c1cccc(F)c1 (stereo not given)
8. Cc1ccc(N2CCC(C(=O)NC3CCc4nccn4C3)CC2)nc1 (stereo not given)

Response given:
8.56
1.82
-15.6
-6.8
-2.24
-6.98
-7.16
-90.5

Hi there! I need cytotoxicity at 70.5 h for each item below, if you can.
1. CN(C)CCN1CCC2(CC1)CN(c1cccnc1)C(=O)CO2
2. CCN(Cc1ccoc1)C(=O)c1ccc(C)c(S(N)(=O)=O)c1
3. N#CCCN(CC1CC1)Cn1cc(Cl)cn1
4. Cc1cnc2c(S(=O)(=O)NC3CCS(=O)(=O)C3)cccc2c1 (stereo not given)
5. CC(C)(C)c1ccn(C2(C(=O)O)CCN(c3ncccc3C#N)CC2)n1
6. Cc1cnc(N2C[C@H]3CCN(CC4CC4)C[C@@H]3C2)nc1
7. O=c1c2cc3c(cc2nnn1Cc1ccccc1)OCCO3
8. COCCN1CCC(NCc2cccc(C)c2)C1 (stereo not given)

Response given:
[-13.5, -10.2, 34.6, -8.37, -2.37, 7.8, -2.96, -12.6]

Hi there! I need cytotoxicity at 70.5 h for each item below, if you can.
1. Cc1ccc(N2CC[C@H]3O[C@@H](C(=O)NCc4ccco4)CC[C@H]32)nn1
2. O=C(CCc1nccs1)N1CCC(N2CCNC2=O)CC1

Response given:
1. -4.81
2. -3.7
